Just for reference, PubChem BioAssay (NCI) is where these values come from.

- assay-text: NCI Yeast Anticancer Drug Screen. Data for the sgs1 mgt1 strain (AID 161);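 note: 0% = growth of cultures given vehicle only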
- experimental-setup: S. cerevisiae sgs1 mgt1 strain, at 50.0 µM, stronger effect = higher value
About 79,000 compounds went through this panel and 15% of them were active in at least one assay; those are over-represented in the sample as a whole. Active and inactive are the calls of the source. Cut-off read from the data, not from the text of the source: active = growth inhibition above about 70%; inactive = the rest.
measurement-type: growth inhibition

>>> df
                                   compound           reading
0  Nc1ccccc1SC1CC(=O)N(c2ccc(Br)cc2)C1=O (configuration not stated)  2.75% (inactive)
1  CCOP(=O)(OCC)C1OCC(O)C(C2OC(P(=O)(OCC)OCC)OCC2O)O1 (configuration not stated)  2.45% (inactive)
2        CC(=O)N1c2ccccc2S(=O)(=O)c2ccccc21  0.75% (inactive)
3  CCN(CC)CCOC(=O)c1ccc(N=Nc2ccc(O)cc2O)cc1  -1.3% (inactive)
4  Cc1ccc(-c2oc(-c3ccc(C)cc3)c3cc(C)c(C)cc23)cc1  -6.7% (inactive)

[in] Endpoint output: growth inhibition of Oc1ccc2c(c1)-c1ccccc1C2 . Value?
[out] -4.5% (inactive)

[in] Endpoint output: growth inhibition of NC(=O)NNCc1ccccc1 . Value?
[out] -27.2% (inactive)

[in] Endpoint output: growth inhibition of CCCCC(=O)NC1=CC(=O)c2ccccc2C1=O . Value?
[out] 47.1% (inactive)

[in] Endpoint output: growth inhibition of COCCNC1CCC2(SCCS2)c2[nH]c3ccccc3c21 (configuration not stated) . Value?
[out] 15.1% (inactive)

[in] Endpoint output: growth inhibition of CN(N=Nc1ccc(C#N)cc1)C(C)(C)C . Value?
[out] 6.5% (inactive)

[in] Endpoint output: growth inhibition of CC(C)OC(=O)Oc1ccc(Cl)cc1Cl . Value?
[out] 10.1% (inactive)

[in] Endpoint output: growth inhibition of COc1ccc2c(c1)OC(c1cccnc1)C(c1ccccc1)C2=O (configuration not stated) . Value?
[out] 17.9% (inactive)
